Molecular target: FLT3 (F594_R595insREY) (Homo sapiens, UniProt P36888, INS594REY)
Sequence (P36888 with tags, fused parts or gaps INS594REY limits assumed): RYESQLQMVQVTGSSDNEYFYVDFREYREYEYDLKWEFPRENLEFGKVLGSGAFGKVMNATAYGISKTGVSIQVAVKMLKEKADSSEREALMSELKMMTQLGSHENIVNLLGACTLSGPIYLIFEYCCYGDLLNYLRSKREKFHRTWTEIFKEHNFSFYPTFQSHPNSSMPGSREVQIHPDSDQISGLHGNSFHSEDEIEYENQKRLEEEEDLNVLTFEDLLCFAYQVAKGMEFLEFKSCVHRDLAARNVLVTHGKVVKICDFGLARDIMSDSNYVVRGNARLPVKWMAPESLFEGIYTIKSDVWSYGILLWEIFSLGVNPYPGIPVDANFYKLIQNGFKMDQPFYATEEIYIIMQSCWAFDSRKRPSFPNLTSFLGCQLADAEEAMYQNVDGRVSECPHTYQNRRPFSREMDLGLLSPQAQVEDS
Assay: Hot-Spot kinase profiling
Details: Table 5 kinase profiling
pIC50: −log10 of the molar value.

| molecule | pIC50 |
| --- | --- |
| O=C(Nc1ccc(N2CCNCC2)cc1)c1n[nH]cc1Nc1ncnc2sc3c(c12)CCC3 [Compound 8t] | 8.86 |

====

Target: FLT3 (Homo sapiens, UniProt P36888)
Construct: purchased Reaction Biology Corp
Sequence (P36888 27-993): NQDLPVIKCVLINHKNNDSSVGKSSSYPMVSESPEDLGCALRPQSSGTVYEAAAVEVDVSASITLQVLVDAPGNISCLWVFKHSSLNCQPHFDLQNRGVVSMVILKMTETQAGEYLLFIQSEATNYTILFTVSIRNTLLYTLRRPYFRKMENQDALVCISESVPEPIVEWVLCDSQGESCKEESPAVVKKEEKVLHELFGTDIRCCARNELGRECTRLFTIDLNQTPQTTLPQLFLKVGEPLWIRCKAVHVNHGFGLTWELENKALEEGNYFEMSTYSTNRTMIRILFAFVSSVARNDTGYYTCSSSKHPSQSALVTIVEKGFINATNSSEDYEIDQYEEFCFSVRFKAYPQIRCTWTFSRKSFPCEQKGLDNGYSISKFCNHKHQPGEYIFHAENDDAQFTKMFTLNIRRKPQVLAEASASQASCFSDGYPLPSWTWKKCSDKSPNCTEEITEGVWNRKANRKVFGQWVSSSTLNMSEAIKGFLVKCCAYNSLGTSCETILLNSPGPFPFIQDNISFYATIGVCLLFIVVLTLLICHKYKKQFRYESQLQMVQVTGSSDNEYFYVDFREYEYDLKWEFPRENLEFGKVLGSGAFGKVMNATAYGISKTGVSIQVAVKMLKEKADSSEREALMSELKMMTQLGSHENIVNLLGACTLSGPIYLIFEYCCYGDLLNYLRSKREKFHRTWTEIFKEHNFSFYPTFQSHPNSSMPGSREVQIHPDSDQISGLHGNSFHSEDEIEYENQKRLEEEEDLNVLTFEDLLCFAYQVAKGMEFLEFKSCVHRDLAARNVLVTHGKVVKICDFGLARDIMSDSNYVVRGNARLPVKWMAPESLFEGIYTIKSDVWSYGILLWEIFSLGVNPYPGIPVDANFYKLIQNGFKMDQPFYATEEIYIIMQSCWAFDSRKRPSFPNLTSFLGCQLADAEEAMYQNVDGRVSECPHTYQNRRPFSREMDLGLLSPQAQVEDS
Assay: FLT3 kinase activity assay (Hot-Spot)
Format: biochemical
Conditions: 10 μM ATP; mean ± SD, three independent experiments
Experimental: Activities of kinases were determined using Hot-SpotSM kinase assay which was performed by Reaction Biology Corp. (Malvern PA, USA) as described previously.
Doc: threshold 3 nM (exclusive). Items with IC50 beneath it return YES; others return NO.

| molecule | assigned-class |
| --- | --- |
| O=C(Nc1ccc(N2CCNCC2)cc1)c1n[nH]cc1Nc1ncnc2sc3c(c12)CCC3 [Compound 8t] | YES |
| O=C(Nc1ccc(N2CCNCC2)cn1)c1n[nH]cc1Nc1ncnc2sc3c(c12)CCCC3 [Compound 8p] | NO |
| O=C(Nc1ccc(N2CC3CC2CN3)cc1)c1n[nH]cc1Nc1ncnc2sccc12 (stereo not drawn) [Compound 8i] | NO |
| O=C(Nc1ccc(N2CCNCC2)cn1)c1n[nH]cc1Nc1ncnc2sc3c(c12)CCCCC3 [Compound 8o] | NO |
| O=C(Nc1ccc(N2CC3CC2CN3)cc1)c1n[nH]cc1Nc1ncnc2[nH]ccc12 (stereo not drawn) [Compound 8j] | YES |
| O=C(Nc1ccc(N2CCNCC2)cc1)c1n[nH]cc1Nc1ncnc2[nH]ccc12 [Compound 8h] | YES |
